ASSAY NAME: total protein half-life in vivo (active degradation + dilution); higher = more stable protein
MEASUREMENT SETUP: wild type E. coli NCM3722; growth: C-lim chemostat; doubling time 3 h
TEST READOUT: total protein half-life in vivo (h)
Quick reminder: number only, in h, skip the unit.

// query total protein half-life in vivo value for entry METRREERIGQLLQELKRSDKLHLKDAAALLGVSEMTIRRDLNNHSAPVVLLGGYIVLEPRSASHYLLSDQKSRLVEEKRRAAKLAATLVEPDQTLFFDCGTTTPWIIEAIDNEIPFTAVCYSLNTFLALKEKPHCRAFLCGGEFHASNAIFKPIDFQQTLNNFCPDIAFYSAAGVHVSKGATCFNLEELPVKHWAMSMAQKHVLVVDHSKFGKVRPARMGDLKRFDIVVSDCCPEDEYVKYAQTQRIKLMY [P0ACK5]
2.74

Could you share which total protein half-life in vivo value was measured for MNISDVAKITGLTSKAIRFYEEKGLVTPPMRSENGYRTYTQQHLNELTLLRQARQVGFNLEESGELVNLFNDPQRHSADVKRRTLEKVAEIERHIEELQSMRDQLLALANACPGDDSADCPIIENLSGCCHHRAG [P0A9G4] ?
1.3

Record request: total protein half-life in vivo value, item "MENQPKLNSSKEVIAFLAERFPHCFSAEGEARPLKIGIFQDLVDRVAGEMNLSKTQLRSALRLYTSSWRYLYGVKPGATRVDLDGNPCGELDEQHVEHARKQLEEAKARVQAQRAEQQAKKREAAATAGEKEDAPRRERKPRPTTPRRKEGAERKPRAQKPVEKAPKTVKAPREEQHTPVSDISALTVGQALKVKAGQNAMDATVLEITKDGVRVQLNSGMSLIVRAEHLVF"
2.73

Reported total protein half-life in vivo for "MIYLRKANERGHANHGWLDSWHTFSFANYYDPNFMGFSALRVINDDVIEAGQGFGTHPHKDMEILTYVLEGTVEHQDSMGNKEQVPAGEFQIMSAGTGIRHSEYNPSSTERLHLYQIWIMPEENGITPRYEQRRFDAVQGKQLVLSPDARDGSLKVHQDMELYRWALLKDEQSVHQIAAERRVWIQVVKGNVTINGVKASTSDGLAIWDEQAISIHADSDSEVLLFDLPPV" : what is it?
2.84

Reported total protein half-life in vivo, sequence "MHINIAWQDVDTVLLDMDGTLLDLAFDNYFWQKLVPETWGAKNGVTPQEAMEYMRQQYHDVQHTLNWYCLDYWSEQLGLDICAMTTEMGPRAVLREDTIPFLEALKASGKQRILLTNAHPHNLAVKLEHTGLDAHLDLLLSTHTFGYPKEDQRLWHAVAEATGLKAERTLFIDDSEAILDAAAQFGIRYCLGVTNPDSGIAEKQYQRHPSLNDYRRLIPSLM" : ____
0.973

# input sequence: "MDYVCSVVFICQSFDLIINRRVISFKKNSLFIVSDKIRRELPVCPSKLRIVDIDKKTCLSFFIDVNNELPGKFTLDKNGYIAEEEPPLSLVFSLFEGIKIADSHSLWLKERLCISLLAMFKKRESVNSFILTNINTFTCKITGIISFNIERQWHLKDIAELIYTSESLIKKRLRDEGTSFTEILRDTRMRYAKKLITSNSYSINVVAQKCGYNSTSYFICAFKDYYGVTPSHYFEKIIGVTDGINKTID" ; wanted: its total protein half-life in vivo
2.27

Which value of total protein half-life in vivo has been reported for "MSHLDNGFRSLTLQRFPATDDVNPLQAWEAADEYLLQQLDDTEIRGPVLILNDAFGALSCALAEHKPYSIGDSYISELATRENLRLNGIDESSVKFLDSTADYPQQPGVVLIKVPKTLALLEQQLRALRKVVTSDTRIIAGAKARDIHTSTLELFEKVLGPTTTTLAWKKARLINCTFNEPQLADAPQTVSWKLEGTDWTIHNHANVFSRTGLDIGARFFMQHLPENLEGEIVDLGCGNGVIGLTLLDKNPQAKVVFVDESPMAVASSRLNVETNMPEALDRCEFMINNALSGVEPFRFNAVLCNPPFHQQHALTDNVAWEMFHHARRCLKINGELYIVANRHLDYFHKLKKIFGNCTTIATNNKFVVLKAVKLGRRR" in the records?
3.05

What total protein half-life in vivo value was documented for this sequence, MPDQTQQFSFKVLTINIHKGFTAFNRRFILPELRDAVRTVSADIVCLQEVMGAHEVHPLHVENWPDTSHYEFLADTMWSDFAYGRNAVYPEGHHGNAVLSRYPIEHYENRDVSVDGAEKRGVLYCRIVPPMTGKAIHVMCVHLGLREAHRQAQLAMLAEWVNELPDGEPVLVAGDFNDWRQKANHPLKVQAGLDEIFTRAHGRPARTFPVQFPLLRLDRIYVKNASASAPTALPLRTWRHLSDHAPLSAEIHL [P0AAW1] ?
2.68

Which total protein half-life in vivo value is on record for MVTSCTGHVLDNQRATTRGVFSSGSHLVTLHFQPHPFFSCVTDAVNGARSRFSAFYPKANYGLQGSQPSDVRAHNRAANGACDEYKQLKVLSMGRQKAVIKARREAKRVLRRDSRSHKQREEESVTSLVQMGGVEAIGMARDSRDTSPILARNEAQLHYLKAIESKQLIFATGEAGCGKTWISAAKAAEALIHKDVDRIIVTRPVLQADEDLGFLPGDIAEKFAPYFRPVYDVLVRRLGASFMQYCLRPEIGKVEIAPFAYMRGRTFENAVVILDEAQNVTAAQMKMFLTRLGENVTVIVNGDITQCDLPRGVCSGLSDALERFEEDEMVGIVRFGKEDCVRSALCQRTLHAYS [P0A9K1] ?
0.166
